System: A549
measurement.notes: Cytotoxicity against human A549 cells assessed as reduction in cell viability incubated for 72 hrs by MTT assay
Format: cell-based
measurement.context: A549, 72 h
readout.kind: IC50 (µM)
Report as a plain number; the unit µM is understood.

Record `Cc1cccn2c(=O)c3cc(C(=O)NCCN4CCN(C)CC4)c(=N)n(CCc4cccs4)c3nc12` . Reported IC50: 16.2

###

measurement.notes: Solubility of compound in cell culture medium in presence of 0.2 % DMSO
Assay type: physicochemical
The molecules listed here are annotated with their solubility.

Record `COc1ccc(CCNC(=O)c2cc3c(=O)n4cccc(C)c4nc3n(CCc3cccs3)c2=N)cc1` . Reported solubility: 2.5 to 5 µM

###

Test system: HK-2
measurement.notes: Cytotoxicity against human HK2 cells assessed as reduction in cell viability incubated for 72 hrs by MTT assay
Format: cell-based
measurement.context: HK-2, 72 h
pIC50: −log10 of the molar value.
readout.kind: pIC50

Sample `Cc1cccn2c(=O)c3cc(C(=O)NCCN4CCN(C)CC4)c(=N)n(CCc4cccs4)c3nc12` , system: HK-2. Its pIC50 is < 4.52

###

target.of.assay: Speckle-type POZ protein (Homo sapiens)
measurement.notes: Binding affinity to recombinant N-terminal GST/His-tagged MATH binding domain SPOP (unknown origin) expressed in Escherichia coli BL21 (DE3) assessed as change in melting temperature at 10 fold compound incubated for 15 mins by nano differential scanning fluorimetry (reference value: -1.7 degreeC)
Hi, to clarify the labels: true (1) covers ΔTm from 2 °C upward, false (0) covers anything below 2 °C.

The following compounds have reported results that may help.
>>> classification("Cc1cccn2c(=O)c3cc(C(=O)NCCCN4CCOCC4)c(=N)n(CCc4ccccc4)c3nc12")
"true (1)"
>>> classification("CCOC(=O)c1cc2c(=O)n3cccc(C)c3nc2n(-c2ccc(F)cc2)c1=N")
"false (0)"
>>> classification("Cc1cccn2c(=O)c3cc(C(=O)NCCCN4CCOCC4)c(=N)n(CCc4ccc(F)cc4)c3nc12")
"true (1)"

Exercise: Could you please find out whether `Cc1cccn2c(=O)c3cc(C(=O)NCc4cccnc4)c(=N)n(CCCN4CCOCC4)c3nc12` has ΔTm that meets 2 °C or exceeds it?
Solution: false (0)

Exercise: Could you please find out whether `Cc1cccn2c(=O)c3cc(C(=O)NCCCN4CCOCC4)c(=N)n(CCc4ccc(Cl)cc4)c3nc12` has ΔTm that meets 2 °C or exceeds it?
Solution: true (1)

###

target.of.assay: UniProtKB O43791
Sequence (O43791 whole entry, the tested form may be a part): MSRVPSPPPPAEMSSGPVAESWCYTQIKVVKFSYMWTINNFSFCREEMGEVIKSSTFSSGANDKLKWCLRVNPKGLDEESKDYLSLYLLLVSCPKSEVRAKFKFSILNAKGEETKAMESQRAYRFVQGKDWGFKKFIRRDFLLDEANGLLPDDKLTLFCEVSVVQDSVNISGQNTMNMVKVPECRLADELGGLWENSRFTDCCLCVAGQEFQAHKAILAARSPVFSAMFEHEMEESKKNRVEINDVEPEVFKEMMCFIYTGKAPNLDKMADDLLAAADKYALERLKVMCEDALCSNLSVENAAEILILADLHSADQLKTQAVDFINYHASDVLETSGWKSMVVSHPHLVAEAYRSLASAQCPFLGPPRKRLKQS
measurement.notes: Binding affinity to recombinant N-terminal GST/His-tagged MATH binding domain SPOP (unknown origin) expressed in Escherichia coli BL21 (DE3) assessed as change in melting temperature at 20 fold compound incubated for 15 mins by nano differential scanning fluorimetry (reference value: -3.8 degreeC)
Hi, to clarify the labels: 1 (yes) covers ΔTm from 4 °C upward, 0 (no) covers anything below 4 °C.

The following molecules have reported results that may help.
>>> classification("Cc1cccn2c(=O)c3cc(C(=O)NCCN4CCOCC4)c(=N)n(CCc4cccs4)c3nc12")
"0 (no)"
>>> classification("Cc1cccn2c(=O)c3cc(C(=O)NCCCN4CCOCC4)c(=N)n(CCc4ccc(Br)cc4)c3nc12")
"0 (no)"
>>> classification("Cc1ccc(CCn2c(=N)c(C(=O)NCCCN3CCOCC3)cc3c(=O)n4cccc(C)c4nc32)cc1")
"0 (no)"
>>> classification("Cc1cccn2c(=O)c3cc(C(=O)O)c(=N)n(CCc4ccccc4)c3nc12")
"0 (no)"
>>> classification("Cc1cccn2c(=O)c3cc(C(=O)NCc4cccnc4)c(=N)n(CCCN4CCOCC4)c3nc12")
"0 (no)"

Exercise: Could you please find out whether `Cc1cccn2c(=O)c3cc(C(=O)NCCCN4CCOCC4)c(=N)n(CCc4cccs4)c3nc12` has ΔTm that meets 4 °C or exceeds it?
Solution: 1 (yes)

Exercise: Could you please find out whether `CCOC(=O)c1cc2c(=O)n3cccc(C)c3nc2n(CCc2ccc(Cl)cc2)c1=N` has ΔTm that meets 4 °C or exceeds it?
Solution: 0 (no)

Exercise: Could you please find out whether `Cc1cccn2c(=O)c3cc(C(=O)NCCCN4CCOCC4)c(=N)n(CCc4cccc(F)c4)c3nc12` has ΔTm that meets 4 °C or exceeds it?
Solution: 1 (yes)
